protocolNotes: Solubility of amorphous material of Compound BMX by the shake flask method
Assay type: physicochemical
protocolConditions: organic solvent or mixture, thermodynamic from solid; solvent 2-Ethly-1-butanol; shake flask
endpoint: solubility at 24 h (µg/mL)

1) COc1ccc(COc2c(/C=C/C(=O)NO)ccc(OC)c2CC=C(C)C)cc1 [amorphous material of Compound BMX]    8800

====

protocolNotes: Solubility of Crystal Form A in process solvents and aqueous buffer systems
Type: physicochemical
protocolConditions: FaSSIF, pH 6.5, fassif, thermodynamic from solid, pH 6.5; room temperature, 24 hours
endpoint: solubility at 24 h (µg/mL)

1. COc1ccc(COc2c(/C=C/C(=O)NO)ccc(OC)c2CC=C(C)C)cc1 [Crystal Form A]    10

====

protocolNotes: Solubility of amorphous material of Compound BMX by the shake flask method
Assay type: physicochemical
protocolConditions: organic solvent or mixture, thermodynamic from solid; solvent Methyl-tert-butyl ether; shake flask
endpoint: solubility at 24 h (µg/mL)

1. COc1ccc(COc2c(/C=C/C(=O)NO)ccc(OC)c2CC=C(C)C)cc1    3300

====

protocolNotes: Solubility of amorphous material of Compound BMX by the shake flask method
Type: physicochemical
protocolConditions: organic solvent or mixture, thermodynamic from solid; solvent Ethyl butyl ketone; shake flask
Experimental: The solubility of amorphous material of Compound BMX was determined by the shake flask method. The amorphous material was obtained by dissolving 500 mg of the Crystal From A of Compound BMX in 10 mL dichloromethane, this solution was evaporated to dryness in vacuum conditions (0 mbar, RT). […] Subsequently, the samples were filtered and diluted for LC analysis and the concentration is determined using a calibration line.
endpoint: solubility at 15 min

1) COc1ccc(COc2c(/C=C/C(=O)NO)ccc(OC)c2CC=C(C)C)cc1 [amorphous material of Compound BMX]    10 to 33 mg/mL

====

protocolNotes: Solubility of amorphous material of Compound BMX by the shake flask method
Type: physicochemical
protocolConditions: organic solvent or mixture, thermodynamic from solid; solvent Ethyl sulfoxide; shake flask
endpoint: solubility at 24 h (µg/mL)

1. COc1ccc(COc2c(/C=C/C(=O)NO)ccc(OC)c2CC=C(C)C)cc1    6900
